Entries and their measured MIC follow.
Test system: Aspergillus flavus
Test: Antifungal activity against Aspergillus flavus ATCC MYA-3631 after 48 hrs by CLSI M38-A2 method
Assay type: functional
Details: ATCC MYA-3631, 48 h

Compound | MIC
C#CCOc1ccc(-c2nc3ccc(N4CCN(C)CC4)cc3[nH]2)cc1 | > 31.2 µg/mL
CN1CCN(c2ccc3[nH]c(-c4ccc5[nH]c(-c6ccc(O)cc6)nc5c4)nc3c2)CC1 | 31.2 µg/mL
CCC(C)n1ncn(-c2ccc(N3CCN(c4ccc(OCC5COC(Cn6cncn6)(c6ccc(Cl)cc6Cl)O5)cc4)CC3)cc2)c1=O (stereo not given) | 0.48 µg/mL
CCCCCN1CCN(c2ccc3nc(-c4ccc5nc(-c6ccc(OC)cc6)[nH]c5c4)[nH]c3c2)CC1 | > 31.2 µg/mL
COc1ccc(-c2nc3cc(-c4nc5cc(N6CCN(C)CC6)ccc5[nH]4)ccc3[nH]2)cc1 | 31.2 µg/mL
C#CCOc1ccc(-c2nc3ccc(-c4nc5ccc(N6CCN(C)CC6)cc5[nH]4)cc3[nH]2)cc1 | > 31.2 µg/mL
CCOc1ccc(-c2nc3ccc(-c4nc5ccc(N6CCN(CC)CC6)cc5[nH]4)cc3[nH]2)cc1 | > 31.2 µg/mL
CN1CCN(c2ccc3nc(-c4ccc5nc(-c6ccc(OCCOCCO)cc6)[nH]c5c4)[nH]c3c2)CC1 | > 31.2 µg/mL
CCCN1CCN(c2ccc3nc(-c4ccc5nc(-c6ccc(OCC)cc6)[nH]c5c4)[nH]c3c2)CC1 | > 31.2 µg/mL
CCCN1CCN(c2ccc3nc(-c4ccc5nc(-c6ccc(OC)cc6)[nH]c5c4)[nH]c3c2)CC1 | > 31.2 µg/mL
C#CCOc1ccc(-c2nc3ccc(-c4nc5ccc(-c6nc7ccc(N8CCN(C)CC8)cc7[nH]6)cc5[nH]4)cc3[nH]2)cc1 | > 31.2 µg/mL
CCCCCCCCCCCCOc1ccc(-c2nc3ccc(-c4nc5ccc(N6CCN(C)CC6)cc5[nH]4)cc3[nH]2)cc1 | > 31.2 µg/mL
CCCCCCCCCCCCN1CCN(c2ccc3nc(-c4ccc5nc(-c6ccc(O)cc6)[nH]c5c4)[nH]c3c2)CC1 | > 31.2 µg/mL
C#CCOc1ccc(-c2nc3ccc(-c4nc5ccc(N6CCN(CCC)CC6)cc5[nH]4)cc3[nH]2)cc1 | > 31.2 µg/mL
CC[C@@H]([C@H](C)O)n1ncn(-c2ccc(N3CCN(c4ccc(OC[C@@H]5CO[C@@](Cn6cncn6)(c6ccc(F)cc6F)C5)cc4)CC3)cc2)c1=O | 0.24 µg/mL
CCCCCN1CCN(c2ccc3nc(-c4ccc5nc(-c6ccc(OCC)cc6)[nH]c5c4)[nH]c3c2)CC1 | > 31.2 µg/mL
CCCN1CCN(c2ccc3nc(-c4ccc5nc(-c6ccc(O)cc6)[nH]c5c4)[nH]c3c2)CC1 | > 31.2 µg/mL
CCOc1ccc(-c2nc3cc(-c4nc5cc(N6CCN(C)CC6)ccc5[nH]4)ccc3[nH]2)cc1 | 31.2 µg/mL
CCN1CCN(c2ccc3nc(-c4ccc5nc(-c6ccc(OC)cc6)[nH]c5c4)[nH]c3c2)CC1 | > 31.2 µg/mL
CN1CCN(c2ccc3nc(-c4ccc5nc(-c6ccc(OCCO)cc6)[nH]c5c4)[nH]c3c2)CC1 | 31.2 µg/mL

---

Tested on: Candida albicans
Test: Antifungal activity against Candida albicans ATCC MYA-2876 after 48 hrs by CLSI M27-A3 method
Type: functional
Settings: ATCC MYA-2876, 48 h
Entries and their measured MIC follow.

Compound | Unit Annotation | Inequality Operator | MIC
CCCCCCCCCCCCN1CCN(c2ccc3nc(-c4ccc5nc(-c6ccc(O)cc6)[nH]c5c4)[nH]c3c2)CC1 | µg/mL | > | 31.2
CCOc1ccc(-c2nc3cc(-c4nc5cc(N6CCN(C)CC6)ccc5[nH]4)ccc3[nH]2)cc1 | µg/mL | = | 7.8
C#CCOc1ccc(-c2nc3ccc(-c4nc5ccc(N6CCN(CCC)CC6)cc5[nH]4)cc3[nH]2)cc1 | µg/mL | > | 31.2
CCCCCN1CCN(c2ccc3nc(-c4ccc5nc(-c6ccc(OC)cc6)[nH]c5c4)[nH]c3c2)CC1 | µg/mL | > | 31.2
CCCN1CCN(c2ccc3nc(-c4ccc5nc(-c6ccc(O)cc6)[nH]c5c4)[nH]c3c2)CC1 | µg/mL | = | 31.2
CN1CCN(c2ccc3nc(-c4ccc5nc(-c6ccc(OCCO)cc6)[nH]c5c4)[nH]c3c2)CC1 | µg/mL | = | 31.2
C[C@@H]1[C@H](O)[C@@H](C)/C=C/C=C/C=C/C=C/C=C/C=C/C=C/[C@H](O[C@@H]2O[C@H](C)[C@@H](O)[C@H](N)[C@@H]2O)C[C@@H]2O[C@](O)(C[C@@H](O)C[C@@H](O)[C@H](O)CC[C@@H](O)C[C@@H](O)CC(=O)O[C@H]1C)C[C@H](O)[C@H]2C(=O)O | µg/mL | = | 1.95
C#CCOc1ccc(-c2nc3ccc(N4CCN(C)CC4)cc3[nH]2)cc1 | µg/mL | > | 31.2
CCCCCCCCCCCCOc1ccc(-c2nc3ccc(-c4nc5ccc(N6CCN(C)CC6)cc5[nH]4)cc3[nH]2)cc1 | µg/mL | > | 31.2
C[C@@H](c1ncncc1F)[C@](O)(Cn1cncn1)c1ccc(F)cc1F | µg/mL | = | 1.95
CCOc1ccc(-c2nc3ccc(-c4nc5ccc(N6CCN(CC)CC6)cc5[nH]4)cc3[nH]2)cc1 | µg/mL | = | 15.6
CCC(C)n1ncn(-c2ccc(N3CCN(c4ccc(OCC5COC(Cn6cncn6)(c6ccc(Cl)cc6Cl)O5)cc4)CC3)cc2)c1=O (stereo not drawn) | µg/mL | = | 7.8
C#CCOc1ccc(-c2nc3ccc(-c4nc5ccc(N6CCN(C)CC6)cc5[nH]4)cc3[nH]2)cc1 | µg/mL | = | 7.8
CN1CCN(c2ccc3nc(-c4ccc5nc(-c6ccc(OCCOCCO)cc6)[nH]c5c4)[nH]c3c2)CC1 | µg/mL | > | 31.2
CCCN1CCN(c2ccc3nc(-c4ccc5nc(-c6ccc(OC)cc6)[nH]c5c4)[nH]c3c2)CC1 | µg/mL | > | 31.2
OC(Cn1cncn1)(Cn1cncn1)c1ccc(F)cc1F | µg/mL | = | 15.6
CCCCCN1CCN(c2ccc3nc(-c4ccc5nc(-c6ccc(OCC)cc6)[nH]c5c4)[nH]c3c2)CC1 | µg/mL | > | 31.2
COc1ccc(-c2nc3cc(-c4nc5cc(N6CCN(C)CC6)ccc5[nH]4)ccc3[nH]2)cc1 | µg/mL | = | 15.6
CC[C@@H]([C@H](C)O)n1ncn(-c2ccc(N3CCN(c4ccc(OC[C@@H]5CO[C@@](Cn6cncn6)(c6ccc(F)cc6F)C5)cc4)CC3)cc2)c1=O | µg/mL | = | 7.8
CCN1CCN(c2ccc3nc(-c4ccc5nc(-c6ccc(OC)cc6)[nH]c5c4)[nH]c3c2)CC1 | µg/mL | > | 31.2
CCCN1CCN(c2ccc3nc(-c4ccc5nc(-c6ccc(OCC)cc6)[nH]c5c4)[nH]c3c2)CC1 | µg/mL | > | 31.2
C#CCOc1ccc(-c2nc3ccc(-c4nc5ccc(-c6nc7ccc(N8CCN(C)CC8)cc7[nH]6)cc5[nH]4)cc3[nH]2)cc1 | µg/mL | > | 31.2
CN1CCN(c2ccc3[nH]c(-c4ccc5[nH]c(-c6ccc(O)cc6)nc5c4)nc3c2)CC1 | µg/mL | = | 7.8
